- ASSAYED_TARGET: HDAC3 (Homo sapiens, UniProt O15379)
- Sequence (O15379 whole entry, species assumed): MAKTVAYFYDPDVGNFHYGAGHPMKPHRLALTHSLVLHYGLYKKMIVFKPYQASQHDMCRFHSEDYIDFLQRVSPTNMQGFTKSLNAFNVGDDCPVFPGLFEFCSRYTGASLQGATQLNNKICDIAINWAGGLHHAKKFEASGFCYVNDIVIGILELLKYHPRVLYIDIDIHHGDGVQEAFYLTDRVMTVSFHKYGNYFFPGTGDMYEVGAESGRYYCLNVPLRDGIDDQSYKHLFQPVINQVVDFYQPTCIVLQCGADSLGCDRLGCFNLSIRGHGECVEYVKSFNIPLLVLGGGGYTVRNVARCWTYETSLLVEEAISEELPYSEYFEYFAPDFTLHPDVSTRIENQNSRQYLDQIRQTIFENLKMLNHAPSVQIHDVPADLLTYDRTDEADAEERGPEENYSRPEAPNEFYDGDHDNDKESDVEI
- Sequence (Q9Y618 395-489 partner limits assumed, species assumed): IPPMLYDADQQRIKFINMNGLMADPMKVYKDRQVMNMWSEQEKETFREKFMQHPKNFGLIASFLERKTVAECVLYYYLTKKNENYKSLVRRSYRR
- PROTOCOL: HDAC biochemical activity measurement (fluorescent substrate deacetylation);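 further: fluorogenic acetyl-lysine substrate (20 µM) deacetylated by HDAC3, then developer added for 15 min at room temperature, release of fluorophore read at excitation 360 nm, emission 460 nm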
- RECORDED_CONDITIONS: read-out: IC50 HDAC3; HDAC3; 37° C. 30 minutes
Recorded pIC50 values for a group of compounds are listed next.
Here pIC50 is given on a logarithmic scale as minus log10 of the concentration in mol/L.

Reference set (6 entries):
- COMPOUND: "C/C=C1\\NC(=O)c2cc(F)cc(n2)CNC(=O)C[C@@H](/C=C/CCSC(C)=O)OC(=O)[C@H](CC)NC1=O"
  REPORTED_MEASUREMENT: 7.54
- COMPOUND: "C/C=C1\\NC(=O)c2nc(ccc2F)CNC(=O)C[C@@H](/C=C/CCSC(C)=O)OC(=O)[C@H](Cc2cccc3ccccc23)NC1=O"
  REPORTED_MEASUREMENT: 7.42
- COMPOUND: "C/C=C1\\NC(=O)c2nc(ccc2F)CNC(=O)C[C@@H](/C=C/CCSC(=O)CCCCC)OC(=O)[C@H](C(C)C)NC1=O"
  REPORTED_MEASUREMENT: 7.43
- COMPOUND: "C/C=C1\\NC(=O)c2cccc(n2)CNC(=O)C[C@@H](/C=C/CCSC(=O)CCCCCC)OC(=O)[C@H](C(C)C)NC1=O"
  REPORTED_MEASUREMENT: 6.75
- COMPOUND: "C/C=C1\\NC(=O)c2cccc(n2)CNC(=O)C[C@@H](/C=C/CCSC(C)=O)OC(=O)[C@H](CCCCN)NC1=O"
  REPORTED_MEASUREMENT: 7.24
- COMPOUND: "C/C=C1\\NC(=O)c2nc(ccc2F)CNC(=O)C[C@@H](/C=C/CCSC(C)=O)OC(=O)[C@H](CCCCN)NC1=O"
  REPORTED_MEASUREMENT: 6.87

API: the following record is the query input.
### Prompt Recorded pIC50 for CC(=O)SCC/C=C/[C@@H]1CC(=O)NCc2cc(F)cc(n2)C(=O)NC(=C(C)C)C(=O)N[C@@H](C(C)C)C(=O)O1 with HDAC3 (Homo sapiens, UniProt O15379), please?
### Response 7.39

---

- Test system: Bel-7402 (human hepatoma cells)
- PROTOCOL: MTT cancer cell growth inhibition
- Type: cell-based
- RECORDED_CONDITIONS: Homo sapiens, Bel-7402, 72 h, MTT, 72 hours incubation, Bel-7402 cells; read-out: GI50 Bel-7402
Rule: GI50 below 50 nM gives Y, anything at or above gives N.

Completed entries (count: 2):
- COMPOUND: "C/C=C1\\NC(=O)c2nc(ccc2F)CNC(=O)C[C@@H](/C=C/CCSC(=O)CCCC)OC(=O)[C@H](C(C)C)NC1=O [Example 39]"
  ANSWER_LABEL: "N"
- COMPOUND: "C/C=C1\\NC(=O)c2cc(F)cc(n2)CNC(=O)C[C@@H](/C=C/CCSC(C)=O)OC(=O)[C@H](C(C)C)NC1=O [Compound 94]"
  ANSWER_LABEL: "N"

Kindly consider the entry below.
### Prompt Does the reported GI50 of C=C1NC(=O)c2nc(ccc2F)CNC(=O)C[C@@H](/C=C/CCSC(C)=O)OC(=O)[C@H](C(C)C)NC1=O [Compound 84] stay below 50 nM?
### Response N

Data origin, for the record: patent US10065990B2
